biological target: UniProt:P30969; assay: In vitro inhibition of LH release in rat pituitary cells at a dose of 1 ug of analogue and 1 ng of LHRH.; format: functional, cell-based; settings: Pituitary gland cell
Square brackets hold non-standard residues; d marks the D form. Peptide text beside a SMILES is read from it. * marks the point of attachment. ξ: configuration not given here. 2Nal = N[C@@H](Cc1ccc2ccccc2c1)C(=O)O; Picolinoyl = O=C(c1ccccn1)*; ξR = N=C(N)NCCCC(N)C(=O)O
Reported values of Activity for individual entries

{"compound": "CC(=O)N[C@@H](Cc1ccc2ccccc2c1)C(=O)NC(CCCCNC(=O)c1ccccn1)C(=O)N[C@@H](CCCCNC(=O)c1ccccn1)C(=O)NC(CCCN=C(N)N)C(=O)NC(C)C(N)=O (stereo in doubt)", "tgt": "UniProt:P30969", "Activity": 145}
{"compound": "CCNC(=O)[C@@H]1CCCN1C(=O)[C@H](CCCN=C(N)N)NC(=O)[C@H](CC(C)C)NC(=O)[C@@H](Cc1c[nH]c2ccccc12)NC(=O)[C@H](Cc1ccc(O)cc1)NC(=O)[C@H](CO)NC(=O)[C@@H](Cc1ccc2ccccc2c1)NC(C)=O", "tgt": "UniProt:P30969", "Activity": 2}
{"compound": "CC(=O)N[C@H](Cc1ccc2ccccc2c1)C(=O)N[C@@H](CO)C(=O)N[C@@H](CCCCNC(=O)c1ccccn1)C(=O)N[C@H](CCCCNC(=O)c1ccccn1)C(=O)N[C@@H](CC(C)C)C(=O)N[C@@H](CCCN=C(N)N)C(=O)N1CCC[C@H]1C(=O)N[C@H](C)C(N)=O", "tgt": "UniProt:P30969", "Activity": 26}
{"compound": "CC(=O)N[C@@H](Cc1ccc2ccccc2c1)C(=O)N[C@@H](CO)C(=O)N[C@@H](Cc1ccc2ccccc2c1)C(=O)N[C@@H](CC(C)C)C(=O)N[C@@H](CCCN=C(N)N)C(=O)N1CCC[C@H]1C(=O)N[C@@H](C)C(N)=O (Ac-[2Nal]S[2Nal]LRPA-NH2)", "tgt": "UniProt:P30969", "Activity": 13}
{"compound": "CCNC(=O)[C@@H]1CCCN1C(=O)[C@H](CCCN=C(N)N)NC(=O)[C@H](CC(C)C)NC(=O)[C@@H](Cc1ccc2ccccc2c1)NC(=O)[C@H](Cc1ccc(O)cc1)NC(=O)[C@H](CO)NC(=O)[C@@H](Cc1ccc2ccccc2c1)NC(C)=O", "tgt": "UniProt:P30969", "Activity": 3}
{"compound": "CC(=O)N[C@@H](Cc1ccc2ccccc2c1)C(=O)N[C@@H](CCCCNC(=O)c1ccccn1)C(=O)NC(CCCN=C(N)N)C(=O)N1CCC[C@H]1C(N)=O (some centres not stated) (Ac-[2Nal]K(Picolinoyl)[ξR]P-NH2)", "tgt": "UniProt:P30969", "Activity": 148}
{"compound": "CC(=O)N[C@@H](Cc1ccc2ccccc2c1)C(=O)N[C@@H](CCCCNC(=O)c1ccccn1)C(=O)N1CCC[C@H]1C(N)=O", "tgt": "UniProt:P30969", "Activity": 145}
{"compound": "CC(=O)N[C@@H](Cc1ccc2ccccc2c1)C(=O)N[C@@H](Cc1ccc(O)cc1)C(=O)N[C@@H](Cc1ccc2ccccc2c1)C(=O)N[C@@H](CCCN=C(N)N)C(=O)N[C@@H](C)C(N)=O (Ac-[2Nal]Y[2Nal]RA-NH2)", "tgt": "UniProt:P30969", "Activity": 142}

Input: Could you share which Activity value was measured for CC(=O)N[C@H](Cc1ccc2ccccc2c1)C(=O)N[C@@H](CO)C(=O)N[C@@H](Cc1ccc(O)cc1)C(=O)N[C@H](Cc1ccc2ccccc2c1)C(=O)N[C@@H](CC(C)C)C(=O)N[C@@H](CCCN=C(N)N)C(=O)N1CCC[C@H]1C(N)=O ?
Output: 4

Input: What Activity value was documented for this compound, CC(=O)N[C@@H](Cc1ccc2ccccc2c1)C(=O)N[C@@H](CC(C)C)C(=O)N[C@@H](CCCN=C(N)N)C(=O)N[C@@H](C)C(N)=O (Ac-[2Nal]LRA-NH2) ?
Output: 145

----------
Activity values by entry
target: Gonadotropin-releasing hormone receptor (Rattus norvegicus) (UniProt P30969); experiment: In vitro inhibition of LH release was determined in rat pituitary cells at a dose of 0.03 ug of analogue and 1 ng of LHRH; assay type: functional, cell-based; details: Pituitary gland cell
Sequence (P30969 whole entry): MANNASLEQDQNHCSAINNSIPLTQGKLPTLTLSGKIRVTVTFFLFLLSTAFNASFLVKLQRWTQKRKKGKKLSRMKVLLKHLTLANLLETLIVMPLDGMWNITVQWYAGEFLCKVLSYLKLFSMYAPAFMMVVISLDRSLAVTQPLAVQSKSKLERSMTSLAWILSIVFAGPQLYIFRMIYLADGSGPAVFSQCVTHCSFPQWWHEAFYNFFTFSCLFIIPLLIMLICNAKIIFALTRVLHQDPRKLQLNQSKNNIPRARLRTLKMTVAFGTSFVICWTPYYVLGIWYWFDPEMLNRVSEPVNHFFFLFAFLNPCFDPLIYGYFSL
Note: the reply should be a number with no unit written.

As a guide, the following entries are already answered.
{"compound": "CCNC(=O)[C@@H]1CCCN1C(=O)C(CCCN=C(N)N)NC(=O)[C@H](CC(C)C)NC(=O)[C@H](CCCCNC(=O)c1ccccn1)NC(=O)C(CCCCNC(=O)c1ccccn1)NC(=O)[C@H](CO)NC(=O)[C@H](Cc1ccc2ccccc2c1)NC(C)=O (some centres not stated)", "tgt": "Gonadotropin-releasing hormone receptor (Rattus norvegicus) (UniProt P30969)", "Activity": 108}
{"compound": "CCNC(=O)[C@@H]1CCCN1C(=O)[C@H](CCCN=C(N)N)NC(=O)[C@H](CC(C)C)NC(=O)[C@@H](Cc1ccc2ccccc2c1)NC(=O)[C@H](Cc1ccc(O)cc1)NC(=O)[C@H](CO)NC(=O)[C@@H](Cc1ccc2ccccc2c1)NC(C)=O", "tgt": "Gonadotropin-releasing hormone receptor (Rattus norvegicus) (UniProt P30969)", "Activity": 45}
{"compound": "CC(=O)N[C@H](Cc1ccc2ccccc2c1)C(=O)N[C@@H](CO)C(=O)N[C@@H](Cc1ccc(O)cc1)C(=O)N[C@H](Cc1ccc2ccccc2c1)C(=O)N[C@@H](CC(C)C)C(=O)N[C@@H](CCCN=C(N)N)C(=O)N1CCC[C@H]1C(N)=O", "tgt": "Gonadotropin-releasing hormone receptor (Rattus norvegicus) (UniProt P30969)", "Activity": 154}
{"compound": "CC(=O)N[C@@H](Cc1ccc(Cl)cc1)C(=O)N[C@@H](Cc1cccnc1)C(=O)N[C@@H](CO)C(=O)N[C@@H](Cc1ccc(O)cc1)C(=O)NC(Cc1ccc2ccccc2c1)C(=O)N[C@@H](CC(C)C)C(=O)N[C@@H](CCCN=C(N)N)C(=O)N1CCC[C@H]1C(=O)N[C@H](C)C(N)=O (stereo in doubt)", "tgt": "Gonadotropin-releasing hormone receptor (Rattus norvegicus) (UniProt P30969)", "Activity": 152}
{"compound": "CCNC(=O)[C@@H]1CCCN1C(=O)[C@H](CCCN=C(N)N)NC(=O)[C@H](CC(C)C)NC(=O)[C@@H](Cc1c[nH]c2ccccc12)NC(=O)[C@H](Cc1ccc(O)cc1)NC(=O)[C@H](CO)NC(=O)[C@@H](Cc1ccc2ccccc2c1)NC(C)=O", "tgt": "Gonadotropin-releasing hormone receptor (Rattus norvegicus) (UniProt P30969)", "Activity": 85}
{"compound": "CCNC(=O)[C@@H]1CCCN1C(=O)[C@H](CCCCNC(C)C)NC(=O)[C@H](CC(C)C)NC(=O)[C@H](CCCCNC(=O)c1ccccn1)NC(=O)[C@H](Cc1ccc(O)cc1)NC(=O)[C@H](CO)NC(=O)[C@H](Cc1ccc2ccccc2c1)NC(C)=O", "tgt": "Gonadotropin-releasing hormone receptor (Rattus norvegicus) (UniProt P30969)", "Activity": 194}
{"compound": "CC(=O)NC(Cc1ccc2ccccc2c1)C(=O)N[C@@H](Cc1ccc(Cl)cc1)C(=O)N[C@@H](Cc1cccnc1)C(=O)N[C@@H](CO)C(=O)N[C@@H](Cc1ccc(O)cc1)C(=O)NC(Cc1ccc2ccccc2c1)C(=O)N[C@@H](CC(C)C)C(=O)N[C@@H](CCCN=C(N)N)C(=O)N1CCC[C@H]1C(=O)N[C@H](C)C(N)=O (stereo in doubt)", "tgt": "Gonadotropin-releasing hormone receptor (Rattus norvegicus) (UniProt P30969)", "Activity": 8}
{"compound": "CC(C)C[C@H](NC(=O)C(Cc1ccc2ccccc2c1)NC(=O)[C@H](Cc1ccc(O)cc1)NC(=O)[C@H](CO)NC(=O)[C@H](Cc1cccnc1)NC(=O)[C@H](Cc1ccc(Cl)cc1)NC(=O)[C@@H]1CCC(=O)N1)C(=O)N[C@@H](CCCN=C(N)N)C(=O)N1CCC[C@H]1C(=O)N[C@H](C)C(N)=O (stereo in doubt)", "tgt": "Gonadotropin-releasing hormone receptor (Rattus norvegicus) (UniProt P30969)", "Activity": 165}

Input: What measured Activity goes with CC(=O)NC(Cc1ccc2ccccc2c1)C(=O)N[C@@H](CO)C(=O)N[C@@H](Cc1ccc(O)cc1)C(=O)NC(Cc1ccc2ccccc2c1)C(=O)N[C@@H](CC(C)C)C(=O)N[C@@H](CCCCNC(C)C)C(=O)N1CCC[C@H]1C(=O)N[C@H](C)C(N)=O (stereo in doubt) ?
Output: 127

Input: Entry CC(=O)N[C@H](Cc1ccc2ccccc2c1)C(=O)N[C@H](Cc1cccnc1)C(=O)N[C@@H](CO)C(=O)N[C@@H](Cc1ccc(O)cc1)C(=O)N[C@H](Cc1ccc2ccccc2c1)C(=O)N[C@@H](CC(C)C)C(=O)N[C@@H](CCCN=C(N)N)C(=O)N1CCC[C@H]1C(=O)N[C@H](C)C(N)=O has what Activity?
Output: 28

Input: Query (compound): CCNC(=O)[C@@H]1CCCN1C(=O)[C@H](CCCCNC(C)C)NC(=O)[C@H](CC(C)C)NC(=O)C(Cc1ccc2ccccc2c1)NC(=O)[C@H](Cc1ccc(O)cc1)NC(=O)[C@H](CO)NC(=O)C(Cc1ccc2ccccc2c1)NC(C)=O (stereo in doubt) ; field requested: Activity
Output: 146

Input: Give its Activity value. Item: CC(=O)NC(Cc1ccc2ccccc2c1)C(=O)N[C@@H](Cc1ccc(Cl)cc1)C(=O)N[C@@H](CO)C(=O)N[C@@H](Cc1ccc(O)cc1)C(=O)NC(Cc1ccc2ccccc2c1)C(=O)N[C@@H](CC(C)C)C(=O)N[C@@H](CCCN=C(N)N)C(=O)N1CCC[C@H]1C(=O)N[C@H](C)C(N)=O (stereo in doubt)
Output: 39
